System: Staphylococcus aureus
Test: Antimicrobial activity against Staphylococcus aureus ATCC 13709 after 20 to 24 hrs
Format: functional
measured-endpoint: MIC (µg/mL)

compound	measured-target	measured-endpoint	unit-string	operator-symbol	obs-value
NC[C@@H]1O[C@H](O[C@H]2[C@@H](OCCNCCCCc3ccccc3)[C@H](O[C@@H]3[C@@H](O)[C@H](N)C[C@H](N)[C@H]3O[C@H]3O[C@H](CO)[C@@H](O)[C@H](O)[C@H]3N)O[C@@H]2CO)[C@H](N)[C@@H](O)[C@@H]1O	Staphylococcus aureus	MIC	µg/mL	=	3
NCCCNCCO[C@H]1[C@H](O[C@@H]2[C@@H](O)[C@H](N)C[C@H](N)[C@H]2O[C@H]2O[C@H](CO)[C@@H](O)[C@H](O)[C@H]2N)O[C@H](CO)[C@H]1O	Staphylococcus aureus	MIC	µg/mL	=	6
NC[C@@H]1O[C@H](O[C@H]2[C@@H](OCCNc3cccc(O)c3)[C@H](O[C@@H]3[C@@H](O)[C@H](N)C[C@H](N)[C@H]3O[C@H]3O[C@H](CO)[C@@H](O)[C@H](O)[C@H]3N)O[C@@H]2CO)[C@H](N)[C@@H](O)[C@@H]1O	Staphylococcus aureus	MIC	µg/mL	=	2
NCCO[C@H]1[C@H](O[C@@H]2[C@@H](O)[C@H](N)C[C@H](N)[C@H]2O[C@H]2O[C@H](CO)[C@@H](O)[C@H](O)[C@H]2N)O[C@H](CO)[C@H]1O[C@H]1O[C@@H](CN)[C@@H](O)[C@H](O)[C@H]1N	Staphylococcus aureus	MIC	µg/mL	=	2
NC[C@@H]1O[C@H](O[C@H]2[C@@H](OCCNCCC3CC4CCC3C4)[C@H](O[C@@H]3[C@@H](O)[C@H](N)C[C@H](N)[C@H]3O[C@H]3O[C@H](CO)[C@@H](O)[C@H](O)[C@H]3N)O[C@@H]2CO)[C@H](N)[C@@H](O)[C@@H]1O (some centres undefined)	Staphylococcus aureus	MIC	µg/mL	=	5
NC[C@@H]1O[C@H](O[C@H]2[C@@H](OCCNCCc3cccnc3)[C@H](O[C@@H]3[C@@H](O)[C@H](N)C[C@H](N)[C@H]3O[C@H]3O[C@H](CO)[C@@H](O)[C@H](O)[C@H]3N)O[C@@H]2CO)[C@H](N)[C@@H](O)[C@@H]1O	Staphylococcus aureus	MIC	µg/mL	<	1.5
NC[C@@H]1O[C@H](O[C@H]2[C@@H](OCCNCCc3ccc(C(F)(F)F)cc3)[C@H](O[C@@H]3[C@@H](O)[C@H](N)C[C@H](N)[C@H]3O[C@H]3O[C@H](CO)[C@@H](O)[C@H](O)[C@H]3N)O[C@@H]2CO)[C@H](N)[C@@H](O)[C@@H]1O	Staphylococcus aureus	MIC	µg/mL	=	0.6
NC[C@@H]1O[C@H](O[C@H]2[C@@H](OCCNc3ccccc3)[C@H](O[C@@H]3[C@@H](O)[C@H](N)C[C@H](N)[C@H]3O[C@H]3O[C@H](CO)[C@@H](O)[C@H](O)[C@H]3N)O[C@@H]2CO)[C@H](N)[C@@H](O)[C@@H]1O	Staphylococcus aureus	MIC	µg/mL	=	6
NC[C@@H]1O[C@H](O[C@H]2[C@@H](OCCCc3ccccc3)[C@H](O[C@@H]3[C@@H](O)[C@H](N)C[C@H](N)[C@H]3O[C@H]3O[C@H](CO)[C@@H](O)[C@H](O)[C@H]3N)O[C@@H]2CO)[C@H](N)[C@@H](O)[C@@H]1O	Staphylococcus aureus	MIC	µg/mL	=	3
